Let's look at some molecules and their measured LD50 at 24 h.
- METHOD: Acute toxicity (mortality after 24 hours)
- ASSAY_SETUP: mouse, in vivo, po; mice, oesophagial intubation, mortality after 24 hours; read-out: Estimated LD 50
Report the figure in mg/kg without appending any unit label.

Worked examples, 7 molecules total:
// query Find the recorded LD50 at 24 h belonging to O=c1[nH]c2ccc(CCN3CCN(c4ccc(F)cc4)CC3)cc2o1 and report it.
// result 1000

// query Find the recorded LD50 at 24 h belonging to COc1ccccc1N1CCN(CCc2ccc3[nH]c(=O)oc3c2)CC1 and report it.
// result 1000

// query Find the recorded LD50 at 24 h belonging to NCCc1ccc2[nH]c(=O)oc2c1 and report it.
// result 1200

// query Find the recorded LD50 at 24 h belonging to Cn1c(=O)oc2cc(CCN3CCN(c4ccc(F)cc4)CC3)ccc21 and report it.
// result 1000

// query Find the recorded LD50 at 24 h belonging to CNCCc1ccc2[nH]c(=O)oc2c1 and report it.
// result 1200

// query Find the recorded LD50 at 24 h belonging to COc1ccccc1N1CCN(CCc2ccc3c(c2)oc(=O)n3C)CC1 and report it.
// result 600

// query Find the recorded LD50 at 24 h belonging to Cn1c(=O)oc2cc(CCN3CCOCC3)ccc21 and report it.
// result 1200

Could you now look at the following molecule, please?
// query Find the recorded LD50 at 24 h belonging to Cn1c(=O)oc2cc(CCNC3CC3)ccc21 and report it.
// result 600

###

Let's look at some compounds and their measured Hypnotic activity, sleep induction time.
- Test system: mice
- METHOD: Hypnotic activity (sleep induction time, sleep time)
- Assay type: in vivo
- ASSAY_SETUP: 12.5 mg.kg^-1, intraperitoneal
Report the figure in min without appending any unit label.

Worked examples, 3 compounds total:
// query Find the recorded Hypnotic activity, sleep induction time belonging to COc1ccccc1N1CCN(CCc2ccc3c(c2)oc(=O)n3C)CC1 and report it.
// result 18

// query Find the recorded Hypnotic activity, sleep induction time belonging to COc1ccccc1N1CCN(CCc2ccc3[nH]c(=O)oc3c2)CC1 and report it.
// result 18.2

// query Find the recorded Hypnotic activity, sleep induction time belonging to O=c1[nH]c2ccc(CCN3CCN(c4ccc(F)cc4)CC3)cc2o1 and report it.
// result 15.1

Could you now look at the following compound, please?
// query Find the recorded Hypnotic activity, sleep induction time belonging to Cn1c(=O)oc2cc(CCN3CCN(c4ccc(F)cc4)CC3)ccc21 and report it.
// result 26.9

###

- METHOD: Acute toxicity (mortality after 24 hours)
- ASSAY_SETUP: mouse, in vivo, po
OBSERVED_PROPERTY: LD50 at 24 h
Returns: string containing the number followed by the unit.

// query Find the recorded LD50 at 24 h belonging to Cn1c(=O)oc2cc(CCN3CCN(c4ncccn4)CC3)ccc21 [Compound 7] and report it.
// result 1200 mg/kg

// query Find the recorded LD50 at 24 h belonging to Cn1c(=O)oc2cc(CCN3CCN(c4cccc(C(F)(F)F)c4)CC3)ccc21 [Compound 3] and report it.
// result 1000 mg/kg

// query Find the recorded LD50 at 24 h belonging to O=c1[nH]c2ccc(CCN3CCN(c4cccc(C(F)(F)F)c4)CC3)cc2o1 [Compound 8] and report it.
// result 1000 mg/kg

Next:
// query Find the recorded LD50 at 24 h belonging to O=c1[nH]c2ccc(CCN3CCN(c4ncccn4)CC3)cc2o1 [Compound 17] and report it.
// result 480 mg/kg
